Readings of z-score for the listed compounds
- assay_protocol: JC-1 mitochondrial signal, unstimulated myeloma cells – cell-based, JC-1 fluorescence, RPMI8226, 24 h, 100 nL compound, profiling panel (AID 1169); note: test concentration not given here
- condition_context: JC-1 mitochondrial potential fluorescence, higher = more signal
The answer should be a number; do not append a unit.

Examples with their reported z-score follow.
compound	z-score
COC(=O)[C@@]1(Cc2ccccc2)[C@H]2c3cc(C(=O)N(C)C)n(CCSC(=N)N)c3C[C@H]2CN1C(=O)c1ccccc1	-0.889
C=CCC(OC(C)=O)[C@@H]1[C@@H](N(Cc2ccc(-c3cccc(C(F)(F)F)c3)o2)C(=O)c2ccc(-c3ccccc3)cc2)c2cc(OCCCO)ccc2N1C(=O)c1ccc2ccccc2c1 (some centres undefined)	0.677
CC(C)=CCCC(C)=CC(O)C1C=CC2C(=O)NC(=O)C2N1Nc1ccccn1 (centres undefined)	0.333

For the next question, use this compound.
Task: Consider the compound shown here: `COc1ccc([Si](C)(C)[C@@H]2[C@@H](CC(=O)N3CCC[C@H]3CO)O[C@]3(C(=O)N(Cc4ccc(N5CCOC5=O)cc4)c4ccccc43)[C@H]2C)cc1` What is its recorded z-score?
Result: -1.07

* * *

- assay_protocol: compound effects on multiple myeloma cell viability – MM1S, calcein-AM fluorescence, 48 h, basal, profiling panel (AID 1165);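 note: viability of MM1S multiple myeloma cells under basal unstimulated conditions; test concentration not given here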
- condition_context: higher = more signal
Response key: T means z-score >= -1; F means z-score < -1.

Worked examples follow.
compound	answer_label
COC(=O)[C@@]1(Cc2ccccc2)[C@H]2c3cc(C(=O)N4CCCC4)n(Cc4ccc(OC)c(OC)c4)c3C[C@H]2CN1C(=O)c1ccccc1	T
C=C(COC)/C(=C/C[C@H](OC(C)=O)c1ccccc1OCCO)c1cc(C(=O)OC)ccc1OC	F
CC(C)C[C@H]1NC(=O)C([C@@H](C)OCc2ccccc2)NC(=O)[C@@]23C(=O)N[C@@H](Cc4ccccc4)C2[C@H](C)[C@@]2(C)O[C@H]2C3/C=C/C/C=C\CNC1=O (some centres not stated)	T

Task: Confirm if z-score reported for the compound `C=CCNC(=O)[C@@H]1[C@H]2C(=O)O[C@H](c3ccccc3)[C@H](c3ccccc3)N2[C@H](c2ccc(OCCO)cc2)[C@@]12C(=O)Nc1ccc(C#CC3(O)CCCCCC3)cc12` is -1 or above.
Result: F

Task: Tell me whether z-score is at least -1 here: CCCCCC1=C2CNC(CC(C)C)(C(=O)OC)C=C2C(C)C1=O (configuration not stated)
Result: T

Task: Given `CC(C)(C)OC(=O)CC[C@@]1(C(=O)NCCN2CCOCC2)N=C(c2ccc(OCCCO)cc2)O[C@@H]1c1ccccc1CN=[N+]=[N-]` , state whether its z-score is at least -1.
Result: T

Task: API: above_or_equal(metric=z-score, cutoff=-1) for item `[N-]=[N+]=Nc1ccccc1[C@@H]1OC(c2ccc(OCCCO)cc2)=N[C@]1(Cc1ccccc1)C(=O)NCCN1CCOCC1`
Result: F

* * *

- assay_system: Calmodulin-1 (Homo sapiens)
- assay_protocol: small molecules binding Ca-loaded calmodulin-1 – biochemical, small-molecule microarray, Cy5-labelled CALM1, plus calcium, artefact control for SMM control-protein annotation, profiling panel (AID 1112);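 note: score merges spot fluorescence with signal to noise from triplicate slides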
- condition_context: Cy5-CALM1 binding fluorescence, higher = more signal
reported_property: composite z-score
Respond numerically, and do not add a unit to the figure.

Use these answered entries as a reference point.
compound	composite z-score
C=CCN1C(=O)[C@@]2(O[C@@H](CCn3cc([C@H](O)c4ccccc4)nn3)[C@H]([Si](C)(C)c3ccc(OC)cc3)[C@H]2C)c2cc(N3C(=O)c4cccc5cccc3c45)ccc21	0.872
CCCCCC1=C2CNC(Cc3ccccc3)(C(=O)OC)C=C2C(C)C1=O (configuration not stated)	1.46
Cc1ccc(S[C@]2(C(=O)NC3CC3)CC(=O)N(C(C)C)[C@@H]2c2ccc(CO)cc2I)cc1	-0.0946
CCCC[C@H]1C[C@@H]1[C@@H]1N(C(C)=O)[C@H](c2cccc(OC)c2)CC12CC2	0.878
CC(C)C[C@H]1NC(=O)C([C@@H](C)OCc2ccccc2)NC(=O)[C@@]23C(=O)N[C@@H](Cc4ccccc4)C2[C@H](C)[C@@]2(C)O[C@H]2C3/C=C/C/C=C\CNC1=O (some centres not stated)	-0.389

Task: Quick one: composite z-score of `C=C(COC)/C(=C/C[C@H](OC(C)=O)c1ccccc1OCCO)c1cc(C(=O)OC)ccc1OC` ?
Result: -1.12

Task: What does the data say about its composite z-score? Entry: `CCOC(=O)C1=CC[C@@H](c2ccc(OC)cc2)N(S(=O)(=O)c2ccc(C)cc2)[C@H]1CC`
Result: 0.436

* * *

- assay_system: Pro-neuregulin-1, membrane-bound isoform (Homo sapiens) (UniProt Q02297)
- Sequence (Q02297 whole entry, looked up, canonical isoform): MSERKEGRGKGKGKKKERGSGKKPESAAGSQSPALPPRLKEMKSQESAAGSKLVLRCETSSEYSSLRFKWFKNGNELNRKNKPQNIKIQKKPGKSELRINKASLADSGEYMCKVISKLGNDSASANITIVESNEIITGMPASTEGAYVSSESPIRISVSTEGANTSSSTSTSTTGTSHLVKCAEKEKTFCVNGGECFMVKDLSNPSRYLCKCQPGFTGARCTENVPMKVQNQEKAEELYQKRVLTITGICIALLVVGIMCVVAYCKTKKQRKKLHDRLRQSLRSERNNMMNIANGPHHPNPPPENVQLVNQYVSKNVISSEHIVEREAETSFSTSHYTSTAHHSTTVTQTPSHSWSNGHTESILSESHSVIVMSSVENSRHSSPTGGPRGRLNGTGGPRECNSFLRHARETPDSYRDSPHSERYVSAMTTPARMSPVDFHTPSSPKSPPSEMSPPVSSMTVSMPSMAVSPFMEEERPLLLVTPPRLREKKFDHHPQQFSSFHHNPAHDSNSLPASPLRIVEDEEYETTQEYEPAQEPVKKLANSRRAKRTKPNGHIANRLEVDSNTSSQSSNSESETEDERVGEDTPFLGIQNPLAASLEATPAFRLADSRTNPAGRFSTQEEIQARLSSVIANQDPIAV
- assay_protocol: small molecules binding neuregulin-1 protein – biochemical, small-molecule microarray, fluorescence 635/667, psychiatric disease protein project, primary screen (AID 1075);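 note: score combines 667 nm spot fluorescence with signal to noise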
- condition_context: NRG1 binding, 635 nm fluorescence, higher = more signal
reported_property: composite z-score
Enter a number only.

Recorded composite z-score, per entry:
> print(dat)
                                   compound  endpoint.value
1  CCOC(=O)C1=CC[C@@H](c2ccc(OC)cc2)N(S(=O)(=O)c2ccc(C)cc2)[C@H]1CC            1.13
2  Cc1ccc(S[C@]2(C(=O)NCC(F)(F)F)CC(=O)N(Cc3ccccc3C(F)(F)F)[C@@H]2c2ccc(CO)cc2)cc1          -0.401
3  COC(=O)[C@@]1(Cc2ccc(OC)cc2)[C@H]2c3cc(C(=O)N4CCCC4)n(Cc4ccc(Cl)c(C(F)(F)F)c4)c3C[C@H]2CN1C(=O)c1ccccc1               2
4  COc1cc(C(O)C2C=CC3C(=O)N(c4ccccc4)C(=O)C3N2Nc2ccccc2F)cc(OC)c1OC (configuration not stated)            1.93
5  COC(=O)[C@@]1(Cc2ccc(OC)cc2)[C@H]2c3cc(C(=O)N4CCCC4)n(Cc4c(CO)[nH]cc(C)c4=O)c3C[C@H]2CN1C(=O)c1ccccc1            1.11
6  [N-]=[N+]=Nc1ccccc1[C@@H]1OC(c2ccc(OCCCO)cc2)=N[C@]1(CCS(=O)(=O)c1ccccc1)C(=O)NCC(O)CO (some centres not stated)            1.05

Task: // query composite z-score value for entry `COc1cc(CO)cc(I)c1O[C@H]1C=C(C(=O)NCCO)C[C@@H](NC2CCCCCC2)[C@@H]1O`
Result: -0.0274

* * *

- assay_protocol: blockers of DNA damage checkpoint Chk1 activation – imaging, HeLa, hydroxyurea, phospho-Chk1 nuclear intensity, primary screen (AID 1187); note: test concentration not given here
- condition_context: hydroxyurea-induced phospho-Chk1 immunofluorescence imaging, higher = more signal
Catalogue of z-score values
Lab note: write the figure by itself, no unit.

Task: Look up z-score: `CCCNC(=O)[C@@]1(Sc2ccc(C)cc2)CC(=O)N(Cc2ccccc2Cl)[C@@H]1c1ccc(CO)cc1I`
Result: 0.677

Task: Recorded z-score for CCCCCC1=C2CNC(Cc3ccccc3)(C(=O)OC)C=C2C(C)C1=O (stereo not given) , please?
Result: 0.846

Task: Look up z-score: `COC(=O)[C@@]1(Cc2ccccc2)[C@H]2c3cc(C(=O)N(C)C)n(CCO)c3C[C@H]2CN1C(=O)c1ccccc1`
Result: 0.491

Task: // query z-score value for entry `C=C(CCCC)/C(=C/C[C@H](OC(=O)c1ccncc1)c1ccccc1OCCO)c1cc(C(=O)OC)ccc1OC`
Result: -0.733

Task: Query: z-score; subject: `COCCOC(=O)N1C(=O)[C@@]2(c3cc(C#CCC(C(=O)OC)C(=O)OC)ccc31)[C@H](C(N)=O)[C@H]1C(=O)O[C@H](c3ccccc3)[C@H](c3ccccc3)N1[C@@H]2c1ccc(O)cc1`
Result: 0.0543

Task: Requested read-out: z-score. Entry: `COCC(=C=CC[C@H](O)c1ccccc1OCCO)C[C@H](O)COCc1ccccc1`
Result: 0.058

Task: Tell me the measured z-score of `C=CCNC(=O)[C@@H]1[C@H]2C(=O)O[C@H](c3ccccc3)[C@H](c3ccccc3)N2[C@H](c2ccc(OCCO)cc2)[C@@]12C(=O)Nc1ccc(C#CC3(O)CCCCCC3)cc12` , please.
Result: -0.271

Task: Suppose we examine the compound `Cc1ccc(S[C@]2(C(=O)NCCCN(C)C)CC(=O)N(C3Cc4ccccc4C3)[C@@H]2c2ccc(CO)cc2I)cc1` ; what z-score value has been reported?
Result: 0.848

Task: Requested field: z-score. Item: CN1C(=O)C2C(C3CC3)C=C3CN(Cc4cccc(Cl)c4)[C@@H]([C@@H](O)Cc4ccccc4)C3C2C1=O (stereo not given in full)
Result: -2.37

Task: Requested field: z-score. Item: OCCCC1=CC(c2ccc(CN3CCCC3)cc2)N(Cc2cccc(OC(F)(F)F)c2)CC1 (stereo not given)
Result: 1.51

Task: Requested field: z-score. Item: `O=C1C[C@]2(c3ccc([N+](=O)[O-])cc3)C(=O)N(C3CC3)c3cc(CO)ccc3[C@H]2N1C1CCCCC1`
Result: -0.771

Task: # lookup: z-score of CC(C)=CCCC(C)=CC(O)C1C=CC2C(=O)NC(=O)C2N1Nc1ccccn1 (stereo not given)
Result: -0.0205

Task: Consider the compound shown here: `O=C1O[C@@H](c2ccccc2)[C@@H](c2ccccc2)N2[C@@H](c3ccc(OCCO)cc3)[C@]3(C(=O)Nc4ccc(C#CC5(O)CCCCCC5)cc43)[C@@H](C(=O)O)[C@H]12` What is its recorded z-score?
Result: 0.0604

Task: What z-score value was documented for this compound, `COc1ccc(C#Cc2ccc3c(c2)[C@]2(C(=O)N3)[C@H](C(=O)O)[C@H]3C(=O)O[C@H](c4ccccc4)[C@H](c4ccccc4)N3[C@@H]2c2ccccc2OCCO)cc1` ?
Result: 0.175

Task: Find the recorded z-score belonging to `COc1cc(CO)cc(I)c1O[C@H]1C=C(C(=O)NCCO)C[C@@H]2O[C@H]12` and report it.
Result: 0.361
